Where do the numbers come from? From ChEMBL document CHEMBL6134842.

This section presents compounds with their documented remaining at 96 h values.
test: Stability of compound at pH 7 assessed as compound remaining measured after 4 days by 1H NMR spectroscopy; type: physicochemical; details: buffer, time 4 day, read-out: Stability

| compound | remaining at 96 h |
| --- | --- |
| COc1cc(C2OC[C@H](CCN3C[C@@H](O)C(O)[C@H](O)C3)O2)ccc1O (some centres undefined) | 61% |
| O=[N+]([O-])c1ccc(C2OC[C@H](CCN3C[C@@H](O)C(O)[C@H](O)C3)O2)cc1 (some centres undefined) | > 95% |
| COc1cc(/C=C/C2OC[C@H](CCN3C[C@@H](O)C(O)[C@H](O)C3)O2)ccc1O (some centres undefined) | 72% |

Proceed to the following item.
Any idea what remaining at 96 h was measured for OC1[C@H](O)CN(CC[C@H]2COC(c3ccc(Br)cc3)O2)C[C@H]1O (some centres undefined) ?
> 95%
